All figures here come from patent US9115122B2.

In this section, each of the molecules is paired with its reported Cell Viability (% of Vehicle) RPMI-7951.
# Tested on: RPMI-7951 melanoma cells
# assay: Cell proliferation WST-1 assay, single dose (Example 4)
# Format: cell-based
# test conditions: 100 μM, 48 hours

The cases that follow already have their Cell Viability (% of Vehicle) RPMI-7951 on record.
1) CCOc1ccc(/C=C2\SC(=O)N(CCNC(=O)OCC3c4ccccc4-c4ccccc43)C2=O)cc1 [Compound 26e]: 27 ± 3 % of Vehicle
2) CCOc1ccc(/C=C2\SC(=O)N(CCCl)C2=O)cc1 [Compound 28f]: 128 ± 3 % of Vehicle

Inquiry: Endpoint output: Cell Viability (% of Vehicle) RPMI-7951 of CCOc1ccc(/C=C2\SC(=O)N(CCNC(=O)OC)C2=O)cc1 [Compound 26a] . Value?
Reply text: 102 ± 4 % of Vehicle

Inquiry: Fill blank: measured Cell Viability (% of Vehicle) RPMI-7951 of the molecule CCOc1ccc(/C=C2\SC(=O)N(CCO)C2=O)cc1 [Compound 28e] is ____.
Reply text: 137 ± 8 % of Vehicle

Inquiry: // lookup Cell Viability (% of Vehicle) RPMI-7951 for NCCN1C(=O)S/C(=C\c2ccc(OCc3ccccc3)cc2)C1=O [Compound 30h]
Reply text: 0.2 ± 0.04 % of Vehicle

====

Each entry below carries its reported Cell Viability (% of Vehicle) A375.
# Tested on: A375 melanoma cells
# assay: Cell proliferation WST-1 assay, single dose (Example 4)
# Format: cell-based
# test conditions: 100 μM, 48 hours

1) NCCN1C(=O)S/C(=C\c2ccc(OCc3ccccc3)cc2)C1=O [Compound 30h]: 0.6 ± 0.4 % of Vehicle

Inquiry: Recorded Cell Viability (% of Vehicle) A375 for CCOc1ccc(/C=C2\SC(=O)N(CC(=O)OC(C)(C)C)C2=O)cc1 [Compound 28g] , please?
Reply text: 117 ± 7 % of Vehicle

Inquiry: Please report the recorded Cell Viability (% of Vehicle) A375 for CCOc1ccc(/C=C2\SC(=O)N(CCNC(C)=O)C2=O)cc1 [Compound 25a] .
Reply text: 121 ± 4 % of Vehicle

Inquiry: Which Cell Viability (% of Vehicle) A375 is listed for CCOc1ccc(/C=C2\SC(=O)N(CCNCc3ccc(C#N)cc3)C2=O)cc1 [Compound 23e] ?
Reply text: 89 ± 3 % of Vehicle

Inquiry: Quick one: Cell Viability (% of Vehicle) A375 for CCOc1ccc(/C=C2\SC(=O)N(CCNC(=O)OCC3c4ccccc4-c4ccccc43)C2=O)cc1 [Compound 26e] ?
Reply text: 43 ± 3 % of Vehicle

Inquiry: Given the entry CCOc1ccc(/C=C2\SC(=O)N(CCN(Cc3ccc(C#N)cc3)Cc3cccc(C#N)c3)C2=O)cc1 [Compound 24c] , report its measured Cell Viability (% of Vehicle) A375.
Reply text: 115 ± 1 % of Vehicle

Inquiry: // Cell Viability (% of Vehicle) A375 lookup, key: CCOc1ccc(/C=C2\SC(=O)N(Cc3cccnc3)C2=O)cc1 [Compound 28k]
Reply text: 105 ± 4 % of Vehicle

Inquiry: Request the reported Cell Viability (% of Vehicle) A375 associated with CCNCCN1C(=O)S/C(=C\c2ccc(OCC)cc2)C1=O [Compound 23b]
Reply text: 51 ± 4 % of Vehicle

====

# System: Jurkat T-cell leukemia cells
# assay: Cell proliferation WST-1 assay, single dose (Example 4)
# Type: cell-based
# test conditions: 100 μM, 48 hours
property label: Cell Viability (% of Vehicle) Jurkat

# count of solved cases: 5
1. NCCN1C(=O)S/C(=C\c2ccccc2O)C1=O [Compound 30i]: 99 ± 5 % of Vehicle
2. CCOc1ccc(/C=C2\SC(=O)N(CC(=O)O)C2=O)cc1 [Compound 28h]: 108 ± 3 % of Vehicle
3. CCOc1ccccc1/C=C1\SC(=O)N(CCN)C1=O [Compound 30c]: 66 ± 5 % of Vehicle
4. CCOc1ccc(/C=C2\SC(=O)N(Cc3cnc[nH]3)C2=O)cc1 [Compound 28a]: 106 ± 6 % of Vehicle
5. CCOc1ccc(/C=C2\SC(=O)N(Cc3cccnc3)C2=O)cc1 [Compound 28k]: 98 ± 2 % of Vehicle

Inquiry: I am curious: what Cell Viability (% of Vehicle) Jurkat value has been reported for CCOc1ccc(/C=C2\SC(=O)N(Cc3ccc(C(=O)OC(C)(C)C)cc3)C2=O)cc1 [Compound 28p] ?
Reply text: 101 ± 2 % of Vehicle

Inquiry: Given CCOc1ccc(/C=C2\SC(=O)N(Cc3ccc(N)cc3)C2=O)cc1 [Compound 28o] , state its recorded Cell Viability (% of Vehicle) Jurkat.
Reply text: 97 ± 7 % of Vehicle

Inquiry: State the recorded Cell Viability (% of Vehicle) Jurkat for this entry: CCOc1ccc(/C=C2\SC(=S)N(CCN)C2=O)cc1
Reply text: 52 ± 4 % of Vehicle

Inquiry: What measured Cell Viability (% of Vehicle) Jurkat goes with CCOc1ccc(/C=C2\SC(=O)N(Cc3ccc([N+](=O)[O-])cc3)C2=O)cc1 [Compound 28n] ?
Reply text: 101 ± 9 % of Vehicle

====

# study system: ERK2 L265A (Rattus norvegicus (Rat), UniProt P63086, L265A)
# Sequence (P63086 whole entry L265A): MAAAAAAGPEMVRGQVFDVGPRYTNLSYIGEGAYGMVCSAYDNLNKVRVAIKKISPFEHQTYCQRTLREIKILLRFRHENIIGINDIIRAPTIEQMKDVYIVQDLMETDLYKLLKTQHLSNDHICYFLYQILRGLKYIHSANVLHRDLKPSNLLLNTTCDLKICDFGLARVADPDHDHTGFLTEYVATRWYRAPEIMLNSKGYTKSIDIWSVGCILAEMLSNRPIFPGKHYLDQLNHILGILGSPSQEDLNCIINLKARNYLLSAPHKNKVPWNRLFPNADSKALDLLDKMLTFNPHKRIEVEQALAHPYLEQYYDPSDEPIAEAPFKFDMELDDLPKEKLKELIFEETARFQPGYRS
# assay: Fluorescence quenching (FQ) binding affinity
# test conditions: read-out: KD L265A (Site 4)
property label: pKd
Friendly reminder that pKd comes from taking -log10 of the concentration in mol/L.

Inquiry: GET /values?readout=pKd&item= O=S1(=O)C=CC(OS(=O)(=O)c2ccccc2)C1 (stereo not shown)
Reply text: 6.55

====

# Tested on: serum response element (SRE)
# assay: SRE promoter luciferase assay, HeLa cells (Example 4)
# Type: cell-based
# test conditions: Homo sapiens, EGF 25 ng/mL, read-out: estimated IC50 SRE promoter activity
Reported IC50 values for a set of compounds

1) CCOc1ccc(/C=C2\SC(=O)N(CCN)C2=O)cc1 [Compound 76]: ≤ 5 µM

// switching to the query compound
Inquiry: So what IC50 did CC(C)COc1ccc(/C=C2\SC(=O)N(CCN)C2=O)cc1 [Compound 30g] get with serum response element (SRE)?
Reply text: ≤ 5 µM

====

# study system: ERK2 T157A/D319N (Rattus norvegicus (Rat), UniProt P63086, D319N/T157A)
# Sequence (P63086 whole entry T157A/D319N): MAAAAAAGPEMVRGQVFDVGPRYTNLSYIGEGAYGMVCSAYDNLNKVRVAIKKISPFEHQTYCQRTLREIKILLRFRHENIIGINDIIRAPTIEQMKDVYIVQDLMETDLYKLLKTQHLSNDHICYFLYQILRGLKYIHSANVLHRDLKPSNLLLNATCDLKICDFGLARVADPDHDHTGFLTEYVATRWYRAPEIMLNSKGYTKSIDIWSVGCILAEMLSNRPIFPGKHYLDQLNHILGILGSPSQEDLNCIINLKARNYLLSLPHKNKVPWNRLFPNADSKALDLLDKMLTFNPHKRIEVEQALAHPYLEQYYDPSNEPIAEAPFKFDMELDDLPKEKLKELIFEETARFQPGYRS
# assay: Fluorescence quenching (FQ) binding affinity
# test conditions: read-out: KD T157A/D319N (Site1)
property label: Kd (µM)
Answer with a number only, understood to be in µM.

Inquiry: Consider the compound CCOc1ccc(/C=C2\SC(=O)N(CCN)C2=O)cc1 [Compound 76] and give its measured Kd.
Reply text: 6.4

====

# Tested on: A375 melanoma cells
# assay: Cell proliferation WST-1 assay, single dose (Example 4)
# Type: cell-based
# test conditions: 100 μM, 48 hours
property label: Cell Viability (% of Vehicle) A375

// solved cases for Cell Viability (% of Vehicle) A375 follow
1) CCOc1ccccc1/C=C1\SC(=O)N(CCN)C1=O [Compound 30c]: 22 ± 9 % of Vehicle
2) CCOc1ccc(/C=C2\SC(=O)N(CCNC(=O)OC(C)(C)C)C2=O)cc1 [Compound 25c]: 84 ± 2 % of Vehicle
3) N#Cc1ccc(COc2ccccc2/C=C2\SC(=O)N(CCN)C2=O)cc1 [Compound 30l]: 0.5 ± 0.04 % of Vehicle
4) CCOc1ccc(/C=C2\SC(=O)N(CCNC(=O)OC)C2=O)cc1 [Compound 26a]: 96 ± 4 % of Vehicle
5) CCOc1ccc(/C=C2\SC(=O)N(CCNC(=O)OC(C)(C)C)C2=O)cc1 [Compound 26b]: 88 ± 3 % of Vehicle

Inquiry: Reported Cell Viability (% of Vehicle) A375, molecule NCCN1C(=O)S/C(=C\c2ccccc2O)C1=O [Compound 30i] : ____
Reply text: 78 ± 3 % of Vehicle

Inquiry: Entry CCOc1ccc(/C=C2\SC(=O)N(CCO)C2=O)cc1 [Compound 28e] : reported Cell Viability (% of Vehicle) A375 = ?
Reply text: 116 ± 4 % of Vehicle

Inquiry: Could you share which Cell Viability (% of Vehicle) A375 value was measured for CCOc1ccc(/C=C2\SC(=O)N(CC(=O)O)C2=O)cc1 [Compound 28h] ?
Reply text: 122 ± 6 % of Vehicle

Inquiry: Recorded Cell Viability (% of Vehicle) A375 of CCOc1ccc(/C=C2\SC(=O)N(C[C@H](N)C(=O)OC)C2=O)cc1 [Compound 22d] , please.
Reply text: 41 ± 11 % of Vehicle

Inquiry: Can you look up the measured Cell Viability (% of Vehicle) A375 of CCOc1ccc(/C=C2\SC(=O)N(CCN(Cc3ccccc3)Cc3ccccc3)C2=O)cc1 [Compound 24b] for me?
Reply text: 122 ± 7 % of Vehicle

Inquiry: Look at this molecule and give its reported Cell Viability (% of Vehicle) A375. [H]/N=C(/N)NCCN1C(=O)SC(=Cc2ccc(OCC)cc2)C1=O [Compound 28c]
Reply text: 31 ± 4 % of Vehicle

Inquiry: Any idea what its Cell Viability (% of Vehicle) A375 is? The molecule is CCOc1ccc(/C=C2\SC(=O)N(CCNS(=O)(=O)c3cn(C)cn3)C2=O)cc1 [Compound 27c]
Reply text: 107 ± 2 % of Vehicle

Inquiry: Need Cell Viability (% of Vehicle) A375 of CCOc1ccc(/C=C2\SC(=O)N(CCNC(=O)C(F)(F)F)C2=O)cc1 [Compound 25b] , thanks.
Reply text: 118 ± 4 % of Vehicle

Inquiry: Fill in the blank: the reported Cell Viability (% of Vehicle) A375 of CCOc1ccc(/C=C2\SC(=O)N(Cc3ccc(N)cc3)C2=O)cc1 [Compound 28o] is ____.
Reply text: 119 ± 6 % of Vehicle

Inquiry: Reported Cell Viability (% of Vehicle) A375 for CCOc1ccc(/C=C2\SC(=O)N(CCNC(=O)c3ccc(C#N)cc3)C2=O)cc1 [Compound 25d] : what is it?
Reply text: 118 ± 3 % of Vehicle

Inquiry: # Cell Viability (% of Vehicle) A375 lookup, item CCOc1ccc(/C=C2\SC(=O)N(Cc3ccc(C#N)cc3)C2=O)cc1 [Compound 28m]
Reply text: 108 ± 3 % of Vehicle

Inquiry: Record request: Cell Viability (% of Vehicle) A375 value, item NCCN1C(=O)S/C(=C\c2ccccc2OCc2ccccc2)C1=O [Compound 30k]
Reply text: 0.6 ± 0.03 % of Vehicle

Inquiry: What value of measured Cell Viability (% of Vehicle) A375 is listed for CCOc1ccc(/C=C2\SC(=O)N(Cc3cnc[nH]3)C2=O)cc1 [Compound 28a] ?
Reply text: 101 ± 2 % of Vehicle

Inquiry: What value of Cell Viability (% of Vehicle) A375 has been reported for the following molecule? CCOc1ccc(/C=C2\SC(=O)N(Cc3ccc([N+](=O)[O-])cc3)C2=O)cc1 [Compound 28n]
Reply text: 117 ± 3 % of Vehicle
